- MEASUREMENT_PROTOCOL: chemical genetic growth profiling, strain panel (AID 1159580);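 further: tested at 20 µM; growth read once vehicle control cultures reached saturation at 30 °C; 1 = growth at the plate median or of vehicle wells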
- CONDITIONS: S. cerevisiae deletion strains, growth OD, locus YOL078W, strain AVO1
In all, about 5,500 compounds went through this assay and about 2,000 (36%) were called active. About 18% were inconclusive and are not listed. No stated cut-off is given here; in the data, active means normalized growth mostly below about 0.91 (no sharp cut-off); inconclusive means no clear call, values can overlap the other calls; inactive means mostly above about 0.92. The list shows a part of the results.
Give your call using only these classes: active, inactive

-- ask Write down the call the test reported for this compound. Item: O=C(Nc1ccccn1)c1cc(-c2ccccc2)c(C(F)(F)F)s1
-- reply inactive

-- ask Same thing, different compound: COc1ccccc1NC(=O)Nc1nn(C)c2cccc(OC)c12
-- reply inactive

-- ask Same thing, different compound: CCc1cc2c(cc1-c1csc(C/C(N)=N\O)n1)C(C)(C)CCC2(C)C
-- reply inactive

-- ask Same thing, different compound: N/C(=N/OC(=O)c1ccc(Cl)cc1)c1ccc(F)cc1F
-- reply active

-- ask Same thing, different compound: Cc1onc(-c2ccccc2Cl)c1-c1nc2ccccc2c(=O)o1
-- reply inactive

-- ask Same thing, different compound: CC1(C)C/C(=N/Nc2ccc(C(F)(F)F)cc2)c2cc(C(C)(C)C)c(O)c(O)c2O1
-- reply inactive

-- ask Same thing, different compound: O=C(CO/N=C\c1ccc(Cl)cc1Cl)NNC(=S)Nc1cc(Cl)ccc1Cl
-- reply inactive

-- ask Same thing, different compound: CC(C)(O)C#Cc1ccc(/C=N\Nc2ccccc2)cc1
-- reply inactive

-- ask Same thing, different compound: N#CC1=C(N)C(C#N)(C#N)C2(CCCCC2)C2CCCC=C12 (stereo unspecified)
-- reply inactive

-- ask Same thing, different compound: OC(c1ccc(C(F)(F)F)cc1)c1cccc(C(F)(F)F)c1 (stereo unspecified)
-- reply inactive

-- ask Same thing, different compound: N=C(N)SCc1nc(-c2ccc(Cl)cc2)no1
-- reply inactive

----------
- MEASUREMENT_PROTOCOL: chemical genetic growth profiling, strain panel (AID 1159580)
- CONDITIONS: S. cerevisiae deletion strains, growth OD, locus YCL016C, strain dcc1, stronger effect = lower value
In all, about 5,500 compounds went through this assay and about 2,000 (36%) were called active. Inconclusive results (about 18%) are left out. The list shows a part of the results.
// reported normalized growth per item
Just the number, please.

>>> measurement("c1ccc2[nH]c(-c3cscn3)nc2c1")
0.95
>>> measurement("CC1=CC(=O)CC(C)(C)C1(O)/C=C/C(C)=C\\C(=O)O (stereo not drawn)")
1.01
>>> measurement("C[C@](N)(Cc1ccc(O)c(O)c1)C(=O)O")
0.92
>>> measurement("CCOC(N)=O")
1
>>> measurement("NC(=O)c1cnccn1")
1.01

-- ask Field request: normalized growth | item: O=C(O)c1cc(=O)c2c(OCC(O)COc3cccc4oc(C(=O)O)cc(=O)c34)cccc2o1
-- reply 1.02

-- ask Same thing, different compound: COc1ccc(/C=C/c2cc(O)cc(O)c2)cc1
-- reply 1

-- ask Same thing, different compound: CC1(C)CC2C1CCC1(C)OC1CCC2(C)O (stereo not drawn)
-- reply 1.03

-- ask Same thing, different compound: CC12CCCC(O)(C1)C1CC(C)(C)C1CC2 (stereo not drawn)
-- reply 0.971

-- ask Same thing, different compound: C[C@@H]1C[C@@H]([C@H](O)CC2CC(=O)NC(=O)C2)C(=O)[C@@H](C)C1
-- reply 0.0627

-- ask Same thing, different compound: CCOc1ccc2c(c1)C(C)=CC(C)(C)N2
-- reply 0.995

-- ask Same thing, different compound: CCCCC(CC)CN=C(N)NC(N)=NCCCCCCN=C(N)NC(N)=NCC(CC)CCCC (stereo not drawn)
-- reply 0.0603

-- ask Same thing, different compound: O=C(O)P(=O)(O)O
-- reply 0.998

----------
- MEASUREMENT_PROTOCOL: chemical genetic growth profiling, strain panel (AID 1159580);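 further: tested at 20 µM; growth read once vehicle control cultures reached saturation at 30 °C; 1 = growth at the plate median or of vehicle wells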
- CONDITIONS: S. cerevisiae deletion strains, growth OD, locus YNL322C, strain KRE1
In all, about 5,500 compounds went through this assay and about 2,000 (36%) were called active. Another 18% or so got no clear call; they are omitted. No stated cut-off is given here; in the data, active means normalized growth mostly below about 0.91 (no sharp cut-off); inconclusive means no clear call, values can overlap the other calls; inactive means mostly above about 0.92. This is one part of the list.
Give your call using only these classes: active, inactive

>>> class_name("CCC(C)N(C)C(=O)c1cc2ccccc2c(-c2ccccc2Cl)n1 (stereo unspecified)")
"inactive"
>>> class_name("NC1CCN(c2cccc(Cl)n2)CC1")
"inactive"
>>> class_name("C#C[C@]1(O)CCC2C3CCc4cc(O)ccc4C3CC[C@@]21C (stereo partly specified)")
"inactive"
>>> class_name("Cc1ccc(CSC(=N)N)cc1")
"inactive"

-- ask Write down the call the test reported for this compound. Item: NC(=O)CCSCCC(N)=O
-- reply inactive

-- ask Same thing, different compound: O=C(O)CCC(=O)c1ccc(-c2ccccc2)cc1
-- reply inactive

-- ask Same thing, different compound: CC(=O)c1ccc(-c2ccc(C(C)=O)cc2)cc1
-- reply inactive

-- ask Same thing, different compound: CC(C)(O)C#Cc1ccc(/C=N\O)cc1
-- reply inactive

-- ask Same thing, different compound: CN(C)CCCO[C@H]1[C@@H](C(O)CO)OC2OC(C)(C)O[C@@H]21 (stereo partly specified)
-- reply inactive

-- ask Same thing, different compound: CCCN(CCC)CCc1cccc2c1CC(=O)N2
-- reply inactive

-- ask Same thing, different compound: CC(=O)N[C@@H]1[C@@H](C(O)[C@H](O)CO)O[C@](O)(C(=O)O)C[C@@H]1O (stereo partly specified)
-- reply inactive

-- ask Same thing, different compound: CC1=CC(=O)CC(C)(C)C1(O)/C=C/C(C)=C\C(=O)O (stereo unspecified)
-- reply inactive

-- ask Same thing, different compound: CC1CC2C(C(O)CC3(C)C2CCC3(O)C(=O)COC(=O)CCC(=O)O)C2(C)C=CC(=O)C=C12 (stereo unspecified)
-- reply inactive

-- ask Same thing, different compound: CC[C@@H](C(=O)O)[C@@H]1O[C@@H]([C@@H](C)[C@H](O)[C@H](C)C(=O)[C@H](CC)[C@H]2O[C@]3(C=C[C@@H](O)[C@]4(CC[C@@](C)(C5CC[C@](O)(CC)[C@H](C)O5)O4)O3)[C@H](C)C[C@@H]2C)[C@@H](C)C[C@H]1C (stereo partly specified)
-- reply active

-- ask Same thing, different compound: O=C(O)CP(=O)(O)O
-- reply inactive

----------
- MEASUREMENT_PROTOCOL: chemical genetic growth profiling, strain panel (AID 1159580);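 further: tested at 20 µM; growth read once vehicle control cultures reached saturation at 30 °C; 1 = growth at the plate median or of vehicle wells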
- CONDITIONS: S. cerevisiae deletion strains, growth OD, locus YBR279W, strain paf1
Out of some 5,500 compounds screened, about 2,000 (36%) were called active. Another 18% or so got no clear call; they are omitted. No stated cut-off is given here; in the data, active means normalized growth mostly below about 0.91 (no sharp cut-off); inconclusive means no clear call, values can overlap the other calls; inactive means mostly above about 0.92. The list shows a part of the results.
Give your call using only these classes: active, inactive

>>> class_name("COc1ccc(C[C@H](N)C(=O)N[C@@H]2[C@@H](CO)OC(n3cnc4c(N(C)C)ncnc43)[C@@H]2O)cc1 (stereo partly specified)")
"inactive"
>>> class_name("COc1cc(/C=C/C(=O)O)ccc1O")
"inactive"
>>> class_name("O=C(NC(=O)c1c(F)cccc1F)Nc1cc(Cl)c(OC(F)(F)C(F)C(F)(F)F)cc1Cl (stereo unspecified)")
"inactive"
>>> class_name("COc1ccc(/C=C/C(=O)c2ccc(O)cc2O)cc1")
"active"

Turning now to a further record.
-- ask Write down the call the test reported for this molecule. Item: CCCN(CCC)C(=O)C(CCC(=O)O)NC(=O)c1ccccc1 (stereo unspecified)
-- reply inactive

----------
- MEASUREMENT_PROTOCOL: chemical genetic growth profiling, strain panel (AID 1159580);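 further: tested at 20 µM; growth read once vehicle control cultures reached saturation at 30 °C; 1 = growth at the plate median or of vehicle wells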
- CONDITIONS: S. cerevisiae deletion strains, growth OD, locus YBR023C, strain chs3, stronger effect = lower value
The whole screen tested about 5,500 compounds, of which about 2,000 (36%) were called active. Inconclusive results (about 18%) are left out. Some of the results follow.
Values of normalized growth strictly less than 1 map to 1, and values of at least 1 map to -1.

Take a look at these entries with their results.
>>> class_name("COc1ccc(C=CC(=O)c2ccc(O)cc2O)cc1OC")
1
>>> class_name("CC[C@@]1(C2O[C@@H](C3O[C@@](O)(CC)[C@H](C)C[C@@H]3C)C[C@@H]2C)CC[C@H]([C@]2(C)CCC3(C[C@H](O)[C@@H](C)[C@@H]([C@H](C)[C@@H](OC)[C@H](C)C(=O)O)O3)O2)O1 (stereo partly drawn)")
-1
>>> class_name("CCOC(=O)c1ccc(N)cc1")
-1

-- ask Dear colleague, could you confirm whether normalized growth of CCOC(=O)C1=C[C@]2(CC)CCCN3CCc4c(n1c1ccccc41)[C@@H]32 falls below 1? Thanks.
-- reply -1

-- ask Same thing, different compound: CC1(C)C2CC(=O)O[C@@]3(C)C4=CC(=O)O[C@@H](c5ccoc5)[C@]4(C)CCC3[C@@]2(C)C=C[C@H]1O (stereo partly drawn)
-- reply 1

-- ask Same thing, different compound: COc1ccc(/C=C/C(=O)c2ccc(O)cc2O)cc1
-- reply 1

-- ask Same thing, different compound: COc1ccccc1OCC(O)CN1CCN(CC(=O)Nc2c(C)cccc2C)CC1 (stereo not drawn)
-- reply -1

-- ask Same thing, different compound: CN(Cc1cnc2nc(N)nc(N)c2n1)c1ccc(C(=O)NC(CCC(=O)O)C(=O)O)cc1 (stereo not drawn)
-- reply 1
